Consider the following compounds and their measured RPS10 fluorescence ratio to control readings.
# system tested: RPS10 (Homo sapiens)
# Construct: made in house; host or cells: E. coli BL-21
# Assay type: binding
# setup conditions: 1Ai conc. 2 uM
Answer as a number with no unit attached.

Example entries begin here.
compound="Oc1cc(Cl)ccc1Oc1ccc(Cl)cc1Cl [1Ai-6248]" experimental_endpoint="RPS10 fluorescence ratio to control" result=0.9545
compound="CN1CCN(S(=O)(=O)c2ccc(N3Cc4cc5c(cc4C4(CCCC4)C3)OCCO5)nc2)CC1 [1Ai-3564]" experimental_endpoint="RPS10 fluorescence ratio to control" result=0.9853
compound="O=C(C=Cc1ccc(Cl)s1)Nc1cccc2ncccc12 [1Ai-4860]" experimental_endpoint="RPS10 fluorescence ratio to control" result=0.9408

Q: Which RPS10 fluorescence ratio to control value is on record for COc1cccc(Nc2nc(-c3ccc(NC(C)=O)cc3)c(C)s2)c1 [1Ai-1869] ?
Result: 0.5996

Q: Which RPS10 fluorescence ratio to control value is on record for O=C(CSc1nc(-c2ccccc2)cn1-c1ccccc1)NC(=O)Nc1ccccc1 [1Ai-2383] ?
Result: 0.4799

Q: Which RPS10 fluorescence ratio to control value is on record for CCOC(=O)c1ccsc1NC(=O)CN1C(=O)NC(C)(c2cccc3ccccc23)C1=O (centres unmarked) [1Ai-1861] ?
Result: 0.7185

Q: Which RPS10 fluorescence ratio to control value is on record for COc1ccc2oc(C(=O)OC(C)C(=O)Nc3sccc3C(N)=O)c(C)c2c1 (centres unmarked) [1Ai-3044] ?
Result: 1.108

Q: Which RPS10 fluorescence ratio to control value is on record for CCOc1cc(C(=O)Nc2ccc(Cl)c(-c3nc4ccccc4[nH]3)c2)cc(OCC)c1OCC [1Ai-5677] ?
Result: 1.142

Q: Which RPS10 fluorescence ratio to control value is on record for O=c1cc(CN2CCOCC2)occ1OCCCCCSc1ccnc2cc(C(F)(F)F)ccc12 [1Ai-5730] ?
Result: 0.9868

Q: Which RPS10 fluorescence ratio to control value is on record for Cn1c(=O)c2ccccc2n2c(CNC(c3ccc4c(c3)CCC4)c3cccs3)nnc12 (centres unmarked) [1Ai-7688] ?
Result: 1.353

Q: Which RPS10 fluorescence ratio to control value is on record for Cc1cc(-n2c(C)cc(-c3csc(N)n3)c2C)no1 [1Ai-6464] ?
Result: 0.9061

Q: Which RPS10 fluorescence ratio to control value is on record for O=C(COc1ccccc1[N+](=O)[O-])NCc1ccc(-c2ccc(Br)cc2)o1 [1Ai-4700] ?
Result: 1.071

Q: Which RPS10 fluorescence ratio to control value is on record for C=CCNC(=O)CN1CCN(Cc2nc3cc(-c4ccc(Cl)cc4)sc3c(=O)[nH]2)CC1 [1Ai-1524] ?
Result: 0.8336

Q: Which RPS10 fluorescence ratio to control value is on record for COc1ccc(C=C2CSc3ccc(Cl)cc3C2=O)cc1O [1Ai-5175] ?
Result: 1.156

Q: Which RPS10 fluorescence ratio to control value is on record for Cc1ccc(C(=O)c2cc(O)c(O)c([N+](=O)[O-])c2)cc1 [1Ai-5576] ?
Result: 1.319

Q: Which RPS10 fluorescence ratio to control value is on record for Cc1ccc(C)n1-c1cc([N+](=O)[O-])ccc1N1CCN(C(=O)c2ccccc2)CC1 [1Ai-9008] ?
Result: 0.9687

Q: Which RPS10 fluorescence ratio to control value is on record for CN(C)CC1CCn2cc(c3ccccc32)C2=C(C(=O)NC2=O)c2cn(c3ccccc23)CCO1 (centres unmarked) [1Ai-5662] ?
Result: 0.8646
